- Protocol Notes: Bioavailability in rat at 3 mg/kg, iv and 10 mg/kg, po
- Assay type: ADME, organism-based
- Assay Conditions: in vivo
Reported Endpoint: bioavailability (%)

A = Cc1cccc(C(=O)Nc2ccc(Cl)c(C(=O)Nc3cccnc3)c2)c1
B = Cc1ncc(NC(=O)c2cc(NC(=O)c3cccc(C(F)(F)F)c3)ccc2Cl)s1
C = Cc1ccc(NC(=O)c2cccc(C(F)(F)F)c2)cc1C(=O)Nc1cccnc1
Reorder: bioavailability, max to min. Provide the ranking by listing each label in its place in the requested order.
B, C, A
(B: 62%, C: 40%, A: 28%)

a = O=C(Nc1ccc(Cl)c(C(=O)Nc2cncs2)c1)c1cccc(Cl)c1
b = O=C(Nc1ccc(Cl)c(C(=O)Nc2cncs2)c1)c1cccc(C(F)(F)F)c1
c = O=C(Nc1ccc(Cl)c(C(=O)Nc2cccnc2)c1)c1cccc(C(F)(F)F)c1
List these items ordered by bioavailability, big to small. The labels, placed in the requested order, form the answer.
c, b, a

====

- Protocol Notes: Half life in rat at 3 mg/kg, iv and 10 mg/kg, po
- Assay type: ADME, organism-based
- Assay Conditions: in vivo
Reported Endpoint: half-life (min)

Some entries whose results are on file:
Please look up its half-life: CC(C)c1ncc(NC(=O)c2cc(NC(=O)c3cccc(C(F)(F)F)c3)ccc2Cl)s1
60

Can you look up the measured half-life of Cc1ccc(NC(=O)c2cccc(C(F)(F)F)c2)cc1C(=O)Nc1cccnc1 for me?
60

I am curious: what half-life value has been reported for Cc1ncc(NC(=O)c2cc(NC(=O)c3cc(F)cc(C(F)(F)F)c3)ccc2Cl)s1 ?
438

P = Cc1ncc(NC(=O)c2cc(NC(=O)c3cccc(Cl)c3)ccc2Cl)s1
Q = O=C(Nc1ccc(Cl)c(C(=O)Nc2cncs2)c1)c1cccc(Cl)c1
Given P and given Q , which shows the smaller recorded half-life? Selection: enter the item's label.
Q
(Q: 30 min, P: 54 min)

====

# Macrophage colony-stimulating factor 1 receptor (Homo sapiens): IC50 values follow
# Sequence (P07333 whole entry): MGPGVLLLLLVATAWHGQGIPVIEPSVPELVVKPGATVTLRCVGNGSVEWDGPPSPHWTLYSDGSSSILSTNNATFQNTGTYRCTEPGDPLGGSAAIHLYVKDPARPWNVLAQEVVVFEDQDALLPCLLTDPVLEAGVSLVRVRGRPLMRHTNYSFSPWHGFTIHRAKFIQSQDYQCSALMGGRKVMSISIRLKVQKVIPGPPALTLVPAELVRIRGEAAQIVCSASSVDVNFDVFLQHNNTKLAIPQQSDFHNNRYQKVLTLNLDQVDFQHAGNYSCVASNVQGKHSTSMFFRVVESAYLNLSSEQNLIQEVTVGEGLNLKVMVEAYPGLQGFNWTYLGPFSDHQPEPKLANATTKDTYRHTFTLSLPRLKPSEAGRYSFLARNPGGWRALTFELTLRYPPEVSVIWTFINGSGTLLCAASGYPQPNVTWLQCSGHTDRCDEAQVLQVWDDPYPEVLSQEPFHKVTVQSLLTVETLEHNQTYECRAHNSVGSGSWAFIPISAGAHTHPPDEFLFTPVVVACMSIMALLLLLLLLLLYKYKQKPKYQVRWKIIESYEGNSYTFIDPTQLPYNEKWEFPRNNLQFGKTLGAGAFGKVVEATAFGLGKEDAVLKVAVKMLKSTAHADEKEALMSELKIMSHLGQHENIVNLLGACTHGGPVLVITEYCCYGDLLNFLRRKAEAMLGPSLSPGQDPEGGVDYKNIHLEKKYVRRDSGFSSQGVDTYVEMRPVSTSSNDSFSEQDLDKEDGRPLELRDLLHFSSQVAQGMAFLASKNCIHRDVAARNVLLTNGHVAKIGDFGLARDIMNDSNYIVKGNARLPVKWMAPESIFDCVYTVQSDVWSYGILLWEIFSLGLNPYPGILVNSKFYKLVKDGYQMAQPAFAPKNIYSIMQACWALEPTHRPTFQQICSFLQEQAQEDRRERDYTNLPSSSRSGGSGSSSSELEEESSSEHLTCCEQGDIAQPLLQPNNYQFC
Reported Endpoint: IC50 (nM)

Please review the entries below; each comes with its answer.
So what does the record say about IC50 for Cc1ccc(C(=O)Nc2cccc(C(F)(F)F)c2)cc1NC(=O)c1cccnc1 ?
32

Consider the compound COc1cccc(C(=O)Nc2ccc(Cl)c(C(=O)Nc3cccnc3)c2)c1 and give its measured IC50.
9

Returns the measured IC50 for the input compound. Input: Cc1ccc(NC(=O)c2cccc(C(F)(F)F)c2)cc1NC(=O)c1cccnc1
11

For Cc1cc(C)cc(C(=O)Nc2ccc(Cl)c(C(=O)Nc3cncs3)c2)c1 , what is its reported IC50?
3

For the compound shown here, O=C(Nc1ccc(Cl)c(C(=O)Nc2cncs2)c1)c1cccc(Cl)c1 , give the reported IC50.
5

Given the entry Cc1ncc(NC(=O)c2cc(NC(=O)c3cccc(Cl)c3)ccc2C)s1 , report its measured IC50.
7

Quick one: IC50 for CC(C)c1ncc(NC(=O)c2cc(NC(=O)c3cccc(C(F)(F)F)c3)ccc2Cl)s1 ?
13

May I ask what IC50 has been recorded for Cc1ccc(NC(=O)c2cccc(N(C)S(C)(=O)=O)c2)cc1NC(=O)c1ccc2ncccc2c1 ?
89

P = Cc1ccc(NC(=O)c2cccc(C(F)(F)F)c2)cc1C(=O)Nc1cccnc1
Q = Cc1ccc(C(=O)Nc2cccc(C(F)(F)F)c2)cc1C(=O)Nc1cccnc1
R = Cc1cccc(C(=O)Nc2ccc(Cl)c(C(=O)Nc3cccnc3)c2)c1
S = Cc1cc(C)cc(C(=O)Nc2ccc(Cl)c(C(=O)Nc3cnc(C)s3)c2)c1
List these items ordered by IC50, big to small. Labels, ranked as asked.
Q, P, R, S

====

- Protocol Notes: Half life in rat at 3 mg/kg, iv and 10 mg/kg, po
- Assay type: ADME, organism-based
- Assay Conditions: in vivo
Reported Endpoint: half-life (h)

# annotated cases, reported half-life shown
Tell me the measured half-life of O=C(Nc1ccc(Cl)c(C(=O)Nc2cccnc2)c1)c1cccc(Cl)c1 , please.
1.1

Look up half-life for this compound: Cc1cc(C)cc(C(=O)Nc2ccc(Cl)c(C(=O)Nc3cnc(C)s3)c2)c1
1.3

Could you share which half-life value was measured for O=C(Nc1ccc(Cl)c(C(=O)Nc2cccnc2)c1)c1cccc(C(F)(F)F)c1 ?
1

Given the entry Cc1ncc(NC(=O)c2cc(NC(=O)c3cccc(C(F)(F)F)c3)ccc2Cl)s1 , report its measured half-life.
1.2

P = Cc1cccc(C(=O)Nc2ccc(Cl)c(C(=O)Nc3cccnc3)c2)c1
Q = O=C(Nc1ccc(Cl)c(C(=O)Nc2cncs2)c1)c1cccc(C(F)(F)F)c1
Would you mind telling me which has the lower recorded half-life between P and Q ? Pick one and reply with its label.
P
(P: 0.8 h, Q: 1.2 h)

====

- Protocol Notes: Volume of distribution at steady state in rat at 3 mg/kg, iv and 10 mg/kg, po
- Format: ADME, organism-based
- Assay Conditions: in vivo, read-out: Vdss
Reported Endpoint: Vd (L/kg)

Requested field: Vd. Item: O=C(Nc1ccc(Cl)c(C(=O)Nc2cccnc2)c1)c1cccc(Cl)c1
1.4

Given O=C(Nc1ccc(Cl)c(C(=O)Nc2cccnc2)c1)c1cccc(C(F)(F)F)c1 , state its recorded Vd.
1.5

Any idea what its Vd is? The molecule is Cc1ncc(NC(=O)c2cc(NC(=O)c3cc(F)cc(C(F)(F)F)c3)ccc2Cl)s1
1.4

====

- Protocol Notes: Bioavailability in rat at 3 mg/kg, iv and 10 mg/kg, po
- Format: ADME, organism-based
- Assay Conditions: in vivo
Reported Endpoint: bioavailability (%)

# count of solved cases: 2
Which bioavailability reading was recorded for the molecule O=C(Nc1ccc(Cl)c(C(=O)Nc2cccnc2)c1)c1cccc(Cl)c1 ?
33

# input molecule: Cc1ncc(NC(=O)c2cc(NC(=O)c3cc(F)cc(C(F)(F)F)c3)ccc2Cl)s1 ; wanted: its bioavailability
31

a = Cc1ncc(NC(=O)c2cc(NC(=O)c3cccc(Cl)c3)ccc2Cl)s1
b = CC(C)c1ncc(NC(=O)c2cc(NC(=O)c3cccc(C(F)(F)F)c3)ccc2Cl)s1
c = Cc1cc(C)cc(C(=O)Nc2ccc(Cl)c(C(=O)Nc3cnc(C)s3)c2)c1
List by increasing bioavailability. Kindly provide the labels arranged according to the requested ordering.
c, a, b

====

pIC50: −log10 of the molar value.
Reported pIC50, Macrophage colony-stimulating factor 1 receptor (Homo sapiens).
Reported Endpoint: pIC50

Which pIC50 is listed for Cc1ncc(NC(=O)c2cc(NC(=O)c3cc(F)cc(Cl)c3)ccc2Cl)s1 ?
7.96

Any idea what its pIC50 is? The compound is O=C(Nc1ccc(Cl)c(C(=O)Nc2cccnc2)c1)c1cccc(Br)c1
7.85

Tell me the measured pIC50 of O=C(Nc1ccc(Cl)c(C(=O)Nc2cccnc2)c1)c1ccc(Cl)c(Cl)c1 , please.
8.52

Please give the measured pIC50 for this compound: O=C(Nc1ccc(Cl)c(C(=O)Nc2cnc(C3CC3)s2)c1)c1cccc(C(F)(F)F)c1
6.85
